Tested on: P. aeruginosa LES400 (MDR)
EXPERIMENT_SUMMARY: microbe, parasite or virus in culture
RECORDED_CONDITIONS: LES400 (MDR)
Numbered stars: 1 amine (or outer) side, 2 acyl side, 3 side chain; on linkers, the order of the positions; unused ones are H or OH. Square brackets hold non-standard residues; d marks the D form. Peptide text beside a SMILES is read from it. X1 = CC(C)[C@H](C)N(CC(=O)[*:2])[*:1]; Nspe = C[C@H](NCC(=O)O)c1ccccc1; Nlys = NCCCCNCC(=O)O
REPORTED_METRIC: MIC
Field note: include the unit after the figure.

Below, each entry is followed by its recorded MIC result.
# lookup: MIC of CC(C)[C@H](C)N(CC(N)=O)C(=O)CN(C(=O)CN(CCCCN)C(=O)CN(C(=O)CN(C(=O)CN(CCCCN)C(=O)CN(C(=O)CN(C(=O)CN(CCCCN)C(=O)CN(C(=O)CN(C(=O)CNCCCCN)[C@@H](C)C(C)C)[C@@H](C)C(C)C)[C@@H](C)C(C)C)[C@@H](C)C(C)C)[C@@H](C)C(C)C)[C@@H](C)C(C)C)[C@@H](C)C(C)C
32 µg/mL

# lookup: MIC of C[C@@H](c1ccccc1)N(CC(N)=O)C(=O)CN(C(=O)CN(CCCCN)C(=O)CN(C(=O)CN(C(=O)CN(CCCCN)C(=O)CN(C(=O)CN(C(=O)CN(CCCCN)C(=O)[C@@H]1CCCN1C(=O)CN(C(=O)CNCCCCN)[C@@H](C)c1ccccc1)[C@@H](C)c1ccccc1)[C@@H](C)c1ccccc1)[C@@H](C)c1ccccc1)[C@@H](C)c1ccccc1)[C@@H](C)c1ccccc1 [Peptoid 1-Pro3, H-NLys-Nspe-L-Pro-(NLys-Nspe-Nspe)3-NH2] (H-[Nlys][Nspe]P[Nlys][Nspe][Nspe][Nlys][Nspe][Nspe][Nlys][Nspe][Nspe]-NH2)
8 µg/mL

# lookup: MIC of C[C@@H](c1ccccc1)N(CC(N)=O)C(=O)CN(C(=O)CN(CCCCN)C(=O)[C@@H]1CCCN1C(=O)CN(C(=O)CN(CCCCN)C(=O)CN(C(=O)CN(C(=O)CN(CCCCN)C(=O)CN(C(=O)CN(C(=O)CNCCCCN)[C@@H](C)c1ccccc1)[C@@H](C)c1ccccc1)[C@@H](C)c1ccccc1)[C@@H](C)c1ccccc1)[C@@H](C)c1ccccc1)[C@@H](C)c1ccccc1 [Peptoid 1-Pro9] (H-[Nlys][Nspe][Nspe][Nlys][Nspe][Nspe][Nlys][Nspe]P[Nlys][Nspe][Nspe]-NH2)
16 µg/mL

# lookup: MIC of C[C@@H](c1ccccc1)N(CC(N)=O)C(=O)CN(C(=O)CN(CCCCN)C(=O)CN(C(=O)CN(C(=O)CN(CCCCN)C(=O)[C@@H]1CCCN1C(=O)CN(C(=O)CN(CCCCN)C(=O)CN(C(=O)CN(C(=O)CNCCCCN)[C@@H](C)c1ccccc1)[C@@H](C)c1ccccc1)[C@@H](C)c1ccccc1)[C@@H](C)c1ccccc1)[C@@H](C)c1ccccc1)[C@@H](C)c1ccccc1 [Peptoid 1-Pro6] (H-[Nlys][Nspe][Nspe][Nlys][Nspe]P[Nlys][Nspe][Nspe][Nlys][Nspe][Nspe]-NH2)
8 µg/mL

Continue with the next molecule.
# lookup: MIC of CC(C)[C@H](C)N(CC(=O)N(CCCCN)CC(=O)N(CC(=O)N(CC(=O)N(CCCCN)CC(=O)N(CC(=O)N(CC(=O)N(CCCCN)CC(=O)N(CC(=O)N(CC(N)=O)[C@@H](C)c1ccccc1)[C@@H](C)c1ccccc1)[C@@H](C)C(C)C)[C@@H](C)C(C)C)[C@@H](C)c1ccccc1)[C@@H](C)c1ccccc1)C(=O)CN(C(=O)CNCCCCN)[C@@H](C)C(C)C [1-Nsdp2,3,8,9, H-(NLys-Nsdp-Nsdp-NLys-Nspe-Nspe)2-NH2] (H-[Nlys][X1][X1][Nlys][Nspe][Nspe][Nlys][X1][X1][Nlys][Nspe][Nspe]-NH2)
8 µg/mL

====

System: P. aeruginosa 213 (MDR)
EXPERIMENT_SUMMARY: microbe, parasite or virus in culture
RECORDED_CONDITIONS: 213 (MDR)
Numbered stars: 1 amine (or outer) side, 2 acyl side, 3 side chain; on linkers, the order of the positions; unused ones are H or OH. Square brackets hold non-standard residues; d marks the D form. Peptide text beside a SMILES is read from it. X1 = CC(C)[C@H](C)N(CC(=O)[*:2])[*:1]; Nspe = C[C@H](NCC(=O)O)c1ccccc1; Nphe = O=C(O)CNCc1ccccc1; Nlys = NCCCCNCC(=O)O
Measured MIC accompanies every entry in the list below.
Dear colleague, please return just the value in µg/mL, with no unit written.

# lookup: MIC of C[C@@H](c1ccccc1)N(CC(=O)N(CC(=O)N(CCCCN)CC(=O)N(CC(=O)N(CC(=O)N(CCCCN)CC(=O)N(CC(=O)N(CC(=O)N(CCCCN)CC(=O)N(CC(=O)N(CC(N)=O)Cc1ccccc1)Cc1ccccc1)Cc1ccccc1)Cc1ccccc1)Cc1ccccc1)Cc1ccccc1)Cc1ccccc1)C(=O)CNCCCCN [Peptoid 1ach-Nspe2, H-(NLys-Nspe-Npm)- (NLys-Npm-Npm)3-NH2] (H-[Nlys][Nspe][Nphe][Nlys][Nphe][Nphe][Nlys][Nphe][Nphe][Nlys][Nphe][Nphe]-NH2)
8

# lookup: MIC of C[C@@H](c1ccccc1)N(CC(N)=O)C(=O)CN(Cc1ccccc1)C(=O)CN(CCCCN)C(=O)CN(C(=O)CN(Cc1ccccc1)C(=O)CN(CCCCN)C(=O)CN(C(=O)CN(Cc1ccccc1)C(=O)CN(CCCCN)C(=O)CN(C(=O)CN(Cc1ccccc1)C(=O)CNCCCCN)[C@@H](C)c1ccccc1)[C@@H](C)c1ccccc1)[C@@H](C)c1ccccc1 [1-Npm2,5,8,11, H-(NLys-Npm-Nspe)4-NH2] (H-[Nlys][Nphe][Nspe][Nlys][Nphe][Nspe][Nlys][Nphe][Nspe][Nlys][Nphe][Nspe]-NH2)
4

# lookup: MIC of C[C@@H](c1ccccc1)N(CC(N)=O)C(=O)CN(C(=O)CN(CCCCN)C(=O)CN(C(=O)CN(C(=O)CN(CCCCN)C(=O)CN(C(=O)CN(C(=O)CN(CCCCN)C(=O)[C@@H]1CCCN1C(=O)CN(C(=O)CNCCCCN)[C@@H](C)c1ccccc1)[C@@H](C)c1ccccc1)[C@@H](C)c1ccccc1)[C@@H](C)c1ccccc1)[C@@H](C)c1ccccc1)[C@@H](C)c1ccccc1 [Peptoid 1-Pro3, H-NLys-Nspe-L-Pro-(NLys-Nspe-Nspe)3-NH2] (H-[Nlys][Nspe]P[Nlys][Nspe][Nspe][Nlys][Nspe][Nspe][Nlys][Nspe][Nspe]-NH2)
8

Continuing:
# lookup: MIC of CC(C)[C@H](C)N(CC(=O)N(CCCCN)CC(=O)N(CC(=O)N(CC(=O)N(CCCCN)CC(=O)N(CC(=O)N(CC(=O)N(CCCCN)CC(=O)N(CC(=O)N(CC(N)=O)[C@@H](C)c1ccccc1)[C@@H](C)c1ccccc1)[C@@H](C)C(C)C)[C@@H](C)C(C)C)[C@@H](C)c1ccccc1)[C@@H](C)c1ccccc1)C(=O)CN(C(=O)CNCCCCN)[C@@H](C)C(C)C [1-Nsdp2,3,8,9, H-(NLys-Nsdp-Nsdp-NLys-Nspe-Nspe)2-NH2] (H-[Nlys][X1][X1][Nlys][Nspe][Nspe][Nlys][X1][X1][Nlys][Nspe][Nspe]-NH2)
8

====

Test system: P. aeruginosa LES400 (MDR)
EXPERIMENT_SUMMARY: microbe, parasite or virus in culture
RECORDED_CONDITIONS: LES400 (MDR)
Square brackets hold non-standard residues; d marks the D form. Peptide text beside a SMILES is read from it. Nspe = C[C@H](NCC(=O)O)c1ccccc1; Nlys = NCCCCNCC(=O)O
Measured MIC accompanies every entry in the list below.
Dear colleague, please return just the value in µg/mL, with no unit written.

# lookup: MIC of C[C@H](NCC(=O)N(CC(=O)N(CCCCN)CC(=O)N(CC(=O)N(CCCCN)CC(=O)N(CC(=O)N(CCCCN)CC(=O)N(CC(=O)N(CC(=O)N(CC(=O)N(CC(=O)N(CCCCN)CC(N)=O)[C@@H](C)c1ccccc1)[C@@H](C)c1ccccc1)[C@@H](C)c1ccccc1)[C@@H](C)c1ccccc1)[C@@H](C)c1ccccc1)[C@@H](C)c1ccccc1)[C@@H](C)c1ccccc1)c1ccccc1 [Peptoid 1scr, H-(Nspe)2-(NLys-Nspe)3-(Nspe)3-NLys-NH2] (H-[Nspe][Nspe][Nlys][Nspe][Nlys][Nspe][Nlys][Nspe][Nspe][Nspe][Nspe][Nlys]-NH2)
16

# lookup: MIC of C[C@@H](c1ccccc1)N(CC(N)=O)C(=O)CN(CCCCN)C(=O)CN(CCCCN)C(=O)CN(C(=O)CN(C(=O)CN(CCCCN)C(=O)CN(C(=O)CN(CCCCN)C(=O)CN(CCCCN)C(=O)CN(C(=O)CN(C(=O)CNCCCCN)[C@@H](C)c1ccccc1)[C@@H](C)c1ccccc1)[C@@H](C)c1ccccc1)[C@@H](C)c1ccccc1)[C@@H](C)c1ccccc1 [1-NLys5,11, H-(NLys-Nspe-Nspe-NLys-NLys-Nspe)2-NH2] (H-[Nlys][Nspe][Nspe][Nlys][Nlys][Nspe][Nlys][Nspe][Nspe][Nlys][Nlys][Nspe]-NH2)
8

Continuing:
# lookup: MIC of C[C@@H](c1ccccc1)N(CC(N)=O)C(=O)CN(C(=O)CN(CCCCN)C(=O)CN(Cc1ccccc1)C(=O)CN(Cc1ccccc1)C(=O)CN(CCCCN)C(=O)CN(C(=O)CN(C(=O)CN(CCCCN)C(=O)CN(Cc1ccccc1)C(=O)CN(Cc1ccccc1)C(=O)CNCCCCN)[C@@H](C)c1ccccc1)[C@@H](C)c1ccccc1)[C@@H](C)c1ccccc1 [1-Npm2,3,8,9, H-(NLys-Npm-Npm-NLys-Nspe-Nspe)2-NH2]
4
